test system: HepG2; assay: Cytotoxicity against human HepG2 cells after 96 hrs by MTT assay; format: functional, cell-based; details: HepG2, 96 h
assay.metric: IC50 (µg/mL)
Record the value in µg/mL, omitting the unit from your answer.

-- ask # return recorded IC50 for input Cc1[nH]nc(N/N=C(\C#N)c2nc3ccccc3s2)c1/N=N/c1c(C)n(C)n(-c2ccccc2)c1=O
-- reply 179

-- ask # return recorded IC50 for input Cc1nn2c(N)c(-c3nc4ccccc4s3)nnc2c1/N=N/c1c(C)n(C)n(-c2ccccc2)c1=O
-- reply 225

-- ask # return recorded IC50 for input Cc1[nH]nc(N)c1/N=N/c1c(C)n(C)n(-c2ccccc2)c1=O
-- reply 79.1

###

tested on: WI-38; assay: Cytotoxicity against human WI38 cells after 96 hrs by MTT assay; type: functional, cell-based; conditions: WI-38, 96 h
assay.metric: IC50 (µg/mL)
Record the value in µg/mL, omitting the unit from your answer.

Examples with their reported IC50 follow.
molecular.string | assay.metric | readout.value
Cc1[nH]nc(N/N=C(/C#N)C(N)=C(C#N)C#N)c1/N=N/c1c(C)n(C)n(-c2ccccc2)c1=O | IC50 | 176
Cc1[nH]nc(N/N=C(\SC#N)C(=O)c2ccccc2)c1/N=N/c1c(C)n(C)n(-c2ccccc2)c1=O | IC50 | 92.8
Cc1[nH]nc(-n2nc(C(=O)c3ccccc3)sc2=N)c1/N=N/c1c(C)n(C)n(-c2ccccc2)c1=O | IC50 | 171
CC(=N)c1nnc2c(/N=N/c3c(C)n(C)n(-c4ccccc4)c3=O)c(C)nn2c1N | IC50 | 175
Cc1[nH]nc(N)c1/N=N/c1c(C)n(C)n(-c2ccccc2)c1=O | IC50 | 73.1
CC(=O)C(=NNc1n[nH]c(C)c1/N=N/c1c(C)n(C)n(-c2ccccc2)c1=O)C(C)=O | IC50 | 189

-- ask # return recorded IC50 for input Cc1[nH]nc(NN=C2C(=O)CCCC2=O)c1/N=N/c1c(C)n(C)n(-c2ccccc2)c1=O
-- reply 19.8

-- ask # return recorded IC50 for input O=c1[nH]cc(F)c(=O)[nH]1
-- reply 4

-- ask # return recorded IC50 for input CC(=N)/C(C#N)=N\Nc1c(C)n(C)n(-c2ccccc2)c1=O
-- reply 13.8

-- ask # return recorded IC50 for input CC(=O)c1nnc2c(/N=N/c3c(C)n(C)n(-c4ccccc4)c3=O)c(C)nn2c1C
-- reply 40.3

-- ask # return recorded IC50 for input Cc1nn2c3c(nnc2c1/N=N/c1c(C)n(C)n(-c2ccccc2)c1=O)C(=O)CCC3
-- reply 53

-- ask # return recorded IC50 for input Cc1nn2c(N)c(-c3nc4ccccc4s3)nnc2c1/N=N/c1c(C)n(C)n(-c2ccccc2)c1=O
-- reply 199

-- ask # return recorded IC50 for input CCOC(=O)/C(C#N)=N/Nc1n[nH]c(C)c1/N=N/c1c(C)n(C)n(-c2ccccc2)c1=O
-- reply 169

-- ask # return recorded IC50 for input Cc1nn2c(nnc3c(N)c(C#N)c(N)nc32)c1/N=N/c1c(C)n(C)n(-c2ccccc2)c1=O
-- reply 303

-- ask # return recorded IC50 for input CC(=N)/C(C#N)=N\Nc1n[nH]c(C)c1/N=N/c1c(C)n(C)n(-c2ccccc2)c1=O
-- reply 70.2

-- ask # return recorded IC50 for input Cc1[nH]nc(N/N=C(\C#N)c2nc3ccccc3s2)c1/N=N/c1c(C)n(C)n(-c2ccccc2)c1=O
-- reply 169

-- ask # return recorded IC50 for input CC1=NNC(=O)/C1=N/Nc1n[nH]c(C)c1/N=N/c1c(C)n(C)n(-c2ccccc2)c1=O
-- reply 300

-- ask # return recorded IC50 for input Cc1nn2c(nnc3c(C)n[nH]c32)c1/N=N/c1c(C)n(C)n(-c2ccccc2)c1=O
-- reply 311

-- ask # return recorded IC50 for input Cc1[nH]nc(NN=C(C#N)C#N)c1/N=N/c1c(C)n(C)n(-c2ccccc2)c1=O
-- reply 197

-- ask # return recorded IC50 for input CCOC(=O)c1nnc2c(/N=N/c3c(C)n(C)n(-c4ccccc4)c3=O)c(C)nn2c1N
-- reply 367

-- ask # return recorded IC50 for input Cc1nn2c(N)c(C#N)nnc2c1/N=N/c1c(C)n(C)n(-c2ccccc2)c1=O
-- reply 377

###

experiment: Antioxidant activity assessed as ABTS free radical scavenging activity at 1 mg/mL by spectroscopic analysis; assay type: functional
assay.metric: inhibition
Units required after the number.

molecular.string | assay.metric | readout.value
CC(=N)/C(C#N)=N\Nc1c(C)n(C)n(-c2ccccc2)c1=O | inhibition | 80.9%
CC(=N)c1nnc2c(/N=N/c3c(C)n(C)n(-c4ccccc4)c3=O)c(C)nn2c1N | inhibition | 24.4%
Cc1nn2c(N)c(-c3nc4ccccc4s3)nnc2c1/N=N/c1c(C)n(C)n(-c2ccccc2)c1=O | inhibition | 17.2%
CC(=O)C(=NNc1n[nH]c(C)c1/N=N/c1c(C)n(C)n(-c2ccccc2)c1=O)C(C)=O | inhibition | 25.8%

-- ask # return recorded inhibition for input Cc1nn2c(nnc3c(N)c(C#N)c(N)nc32)c1/N=N/c1c(C)n(C)n(-c2ccccc2)c1=O
-- reply 8.28%

###

assay: Antioxidant activity assessed as ABTS free radical scavenging activity at 1 mg/mL by spectroscopic analysis; type: functional
assay.metric: inhibition (%)
Record the value in %, omitting the unit from your answer.

-- ask # return recorded inhibition for input Cc1[nH]nc(N/N=C(\SC#N)C(=O)c2ccccc2)c1/N=N/c1c(C)n(C)n(-c2ccccc2)c1=O
-- reply 17.6

-- ask # return recorded inhibition for input CCOC(=O)/C(C#N)=N/Nc1n[nH]c(C)c1/N=N/c1c(C)n(C)n(-c2ccccc2)c1=O
-- reply 21.6

###

Known log10 IC50 of a selection of compounds
tested on: HepG2; experiment: Cytotoxicity against human HepG2 cells after 96 hrs by MTT assay; type: functional, cell-based; settings: HepG2, 96 h
On a log10 scale: recorded IC50, unit µg/mL.

Examples with their reported log10 IC50 follow.
molecular.string | log10 IC50
Cc1[nH]nc(-n2nc(C(=O)c3ccccc3)sc2=N)c1/N=N/c1c(C)n(C)n(-c2ccccc2)c1=O | 2.27
O=c1[nH]cc(F)c(=O)[nH]1 | 0.96
CCOC(=O)/C(C#N)=N/Nc1n[nH]c(C)c1/N=N/c1c(C)n(C)n(-c2ccccc2)c1=O | 2.18
CC(=O)C(=NNc1n[nH]c(C)c1/N=N/c1c(C)n(C)n(-c2ccccc2)c1=O)C(C)=O | 2.24
Cc1[nH]nc(NN=C(C#N)C#N)c1/N=N/c1c(C)n(C)n(-c2ccccc2)c1=O | 2.26
Cc1nn2c(N)c(C#N)nnc2c1/N=N/c1c(C)n(C)n(-c2ccccc2)c1=O | 2.40
CC(=N)c1nnc2c(/N=N/c3c(C)n(C)n(-c4ccccc4)c3=O)c(C)nn2c1N | 2.14
CC(=O)c1nnc2c(/N=N/c3c(C)n(C)n(-c4ccccc4)c3=O)c(C)nn2c1C | 1.59

As a next step, examine the compound that follows.
-- ask # return recorded log10 IC50 for input Cc1[nH]nc(N/N=C(\SC#N)C(=O)c2ccccc2)c1/N=N/c1c(C)n(C)n(-c2ccccc2)c1=O
-- reply 1.98

###

tested on: HepG2; assay: Cytotoxicity against human HepG2 cells after 96 hrs by MTT assay; type: functional, cell-based; conditions: HepG2, 96 h
assay.metric: IC50 (µg/mL)
Record the value in µg/mL, omitting the unit from your answer.

molecular.string | assayed.target | assay.metric | readout.value
Cc1[nH]nc(N/N=C(/C#N)C(N)=C(C#N)C#N)c1/N=N/c1c(C)n(C)n(-c2ccccc2)c1=O | HepG2 | IC50 | 148
CC(=N)/C(C#N)=N\Nc1n[nH]c(C)c1/N=N/c1c(C)n(C)n(-c2ccccc2)c1=O | HepG2 | IC50 | 70.8
CC1=NNC(=O)/C1=N/Nc1n[nH]c(C)c1/N=N/c1c(C)n(C)n(-c2ccccc2)c1=O | HepG2 | IC50 | 202

As a next step, examine the molecule that follows.
-- ask # return recorded IC50 for input Cc1nn2c(nnc3c(C)n[nH]c32)c1/N=N/c1c(C)n(C)n(-c2ccccc2)c1=O
-- reply 210

###

assay: Antioxidant activity assessed as ABTS free radical scavenging activity at 1 mg/mL by spectroscopic analysis; type: functional
assay.metric: inhibition
Units required after the number.

molecular.string | readout.value
CC(=O)c1nnc2c(/N=N/c3c(C)n(C)n(-c4ccccc4)c3=O)c(C)nn2c1C | 27.5%
Cc1[nH]nc(N/N=C(/C#N)C(N)=C(C#N)C#N)c1/N=N/c1c(C)n(C)n(-c2ccccc2)c1=O | 9.86%
Cc1[nH]nc(N/N=C(\C#N)c2nc3ccccc3s2)c1/N=N/c1c(C)n(C)n(-c2ccccc2)c1=O | 19.3%

-- ask # return recorded inhibition for input CC1=NNC(=O)/C1=N/Nc1n[nH]c(C)c1/N=N/c1c(C)n(C)n(-c2ccccc2)c1=O
-- reply 16.1%

-- ask # return recorded inhibition for input Cc1[nH]nc(-n2nc(C(=O)c3ccccc3)sc2=N)c1/N=N/c1c(C)n(C)n(-c2ccccc2)c1=O
-- reply 15.7%

-- ask # return recorded inhibition for input CCOC(=O)c1nnc2c(/N=N/c3c(C)n(C)n(-c4ccccc4)c3=O)c(C)nn2c1N
-- reply 17.6%

-- ask # return recorded inhibition for input Cc1nn2c(nnc3c(C)n[nH]c32)c1/N=N/c1c(C)n(C)n(-c2ccccc2)c1=O
-- reply 16.1%

-- ask # return recorded inhibition for input Cc1[nH]nc(NN=C(C#N)C#N)c1/N=N/c1c(C)n(C)n(-c2ccccc2)c1=O
-- reply 17.2%

-- ask # return recorded inhibition for input O=C1O[C@H]([C@@H](O)CO)C(O)=C1O
-- reply 92.3%
